Biological target: human M2 receptor (Homo sapiens, UniProt P08172)
Sequence (P08172 1-466): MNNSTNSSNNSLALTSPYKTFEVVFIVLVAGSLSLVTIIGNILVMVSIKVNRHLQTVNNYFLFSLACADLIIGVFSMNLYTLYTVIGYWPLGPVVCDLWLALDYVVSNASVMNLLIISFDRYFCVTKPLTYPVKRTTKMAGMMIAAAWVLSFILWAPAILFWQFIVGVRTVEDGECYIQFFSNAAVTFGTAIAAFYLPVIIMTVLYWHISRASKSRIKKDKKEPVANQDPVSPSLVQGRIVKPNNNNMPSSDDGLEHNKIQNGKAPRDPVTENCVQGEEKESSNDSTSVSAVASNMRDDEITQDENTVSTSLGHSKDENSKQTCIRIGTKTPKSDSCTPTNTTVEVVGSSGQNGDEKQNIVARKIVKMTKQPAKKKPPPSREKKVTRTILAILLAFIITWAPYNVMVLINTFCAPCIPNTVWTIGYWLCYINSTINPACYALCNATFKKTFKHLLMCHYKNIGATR
Settings: Receptor activity EC50, allosteric potency at EC20 acetylcholine; M2-GIRK1/4 reporter cells; in some cases mean of two or more determinations
Property Name: EC50 (µM)

a. CC[C@@H](NC(=O)c1cn(-c2c(F)cccc2F)c2nc(N3C[C@@H](O)[C@H](O)C3)ccc2c1=O)C(F)(F)F [Example 618]
b. CC(NC(=O)c1cn(-c2c(F)cc(F)cc2F)c2nc(N3C[C@@H](O)CC3=O)ccc2c1=O)C(F)(F)C(F)(F)F (single isomer, unassigned) [Example 530]
c. O=C(NC(C(F)(F)F)C(F)(F)F)c1cn(-c2c(F)cc(F)cc2F)c2nc(N3C[C@@H](O)[C@H](O)C3)ccc2c1=O [Example 572]
d. CC[C@H](NC(=O)c1cn(-c2c(F)cc(F)cc2F)c2nc(N3CCN(C(=O)OC)CC3)ccc2c1=O)C(F)(F)F [Example 595]
e. CC[C@@H](NC(=O)c1cn(-c2ccc(F)cc2F)c2nc(N3C(=O)CCC3C)ccc2c1=O)C(F)(F)F (single isomer, unassigned) [Example 428]
Sort these compounds on EC50 so the largest reading comes first. Submit the labels in the order that the ranking request calls for.
e, a, d, c, b

A. COC1(C)CN(c2ccc3c(=O)c(C(=O)N[C@@H](C(C)(C)C)C(F)(F)F)cn(-c4c(F)cc(F)cc4F)c3n2)C1 [Example 598]
B. O=C(NC12CC(C1)C2)c1cn(-c2c(F)cc(F)cc2F)c2nc(N3CC(O)C4(CC4)C3)ccc2c1=O (single isomer, unassigned) [Example 628]
C. NC(=O)[C@H]1CN(c2ccc3c(=O)c(C(=O)N[C@@H](C4CC4)C(F)(F)F)cn(-c4c(F)cc(F)cc4F)c3n2)C(=O)O1 [Example 671]
D. O=C(NC(c1ccccc1Cl)C(F)(F)F)c1cn(-c2c(F)cc(F)cc2F)c2nc(N3C[C@@H](O)[C@H](O)C3)ccc2c1=O (single isomer, unassigned) [Example 561]
Arrange items by their EC50 values in increasing order. Dear reader, please state the labels in the requested order.
D, A, B, C

====

Target: UniProt:P08172
Details: Receptor activity EC50, M2-GIRK1/4 activation test, acetylcholine at EC20; allosteric potency; in some cases mean values from two or more determinations
Property Name: EC50 (µM)

Study these solved cases before continuing.
CC(NC(=O)c1cn(-c2ccc(F)cc2F)c2nc(N3C[C@@H](O)CC3=O)ccc2c1=O)c1c(F)cccc1F (mixture of isomers) [Example 214] :: 0.107
CC[C@H](NC(=O)c1cn(-c2ccc(F)cc2F)c2nc(N3C[C@@H](O)CC3=O)ccc2c1=O)C(F)(F)F :: 0.113
CC(C)C(NC(=O)c1cn(-c2ccc(F)cc2F)c2nc(N3CC[C@H](F)C3)ccc2c1=O)C(F)(F)F (stereo partly drawn) :: 0.013

1. CC[C@H](NC(=O)c1cn(-c2c(F)cccc2F)c2nc(N3C[C@@H](O)[C@H](O)C3)ccc2c1=O)C(F)(F)F
2. CCC(NC(=O)c1cn(-c2ccc(F)cc2F)c2nc(N3CC[C@H](F)C3)ccc2c1=O)C(F)(F)F (stereo partly drawn)
Record comparison, field EC50: mark the lower of 1 and 2 . # answer = label of selected item
2

Values from patent US20190367516A1
